- tested.on: Bt IspE (Burkholderia thailandensis)
- Sequence (Q2T1B6 whole entry): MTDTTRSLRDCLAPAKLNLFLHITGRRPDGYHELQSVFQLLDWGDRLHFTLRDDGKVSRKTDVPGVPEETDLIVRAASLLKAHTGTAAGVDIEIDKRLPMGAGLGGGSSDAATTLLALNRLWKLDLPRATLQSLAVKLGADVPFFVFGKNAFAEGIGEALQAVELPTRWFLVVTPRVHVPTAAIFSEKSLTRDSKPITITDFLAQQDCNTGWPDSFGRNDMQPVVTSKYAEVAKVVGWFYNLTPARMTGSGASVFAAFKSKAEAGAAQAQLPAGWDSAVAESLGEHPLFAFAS
assay.metric: pIC50
Kindly note that pIC50 refers to -log10 of the concentration in mol/L and answer with the value alone.

Short answer please: pIC50, Bt IspE (Burkholderia thailandensis), entry Clc1ccc(OCc2nnc(-c3nc4ccccc4s3)o2)c(Cl)c1 [HGN-333]
4.55

###

The compounds listed here are annotated with their MtIspD melting temp.
- tested.on: Mycobacterium tuberculosis IspD (MtIspD) (Mycobacterium tuberculosis, UniProt P9WKG9)
- Sequence (P9WKG9 1-231): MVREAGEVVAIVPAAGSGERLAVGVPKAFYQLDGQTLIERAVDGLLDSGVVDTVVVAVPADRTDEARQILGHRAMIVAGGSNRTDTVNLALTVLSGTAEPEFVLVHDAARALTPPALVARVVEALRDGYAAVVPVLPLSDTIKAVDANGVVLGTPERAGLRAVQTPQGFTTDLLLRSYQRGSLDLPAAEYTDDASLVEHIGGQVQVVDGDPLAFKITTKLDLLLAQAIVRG
- measurement.protocol: Thermal shift assay against MtIspD
- Format: binding
Enter your answer as a number in °C; do not include the unit.

Some entries whose results are on file:
Clc1ccc(-c2nnc(-c3nc4ccccc4[nH]3)o2)cc1 [HGN-421]: 48.8
c1ccc2[nH]c(-c3nnc(C4CCCCC4)o3)cc2c1 [HGN-254]: 48.5
CC(C)c1nnc(-c2cc3ccccc3[nH]2)o1 [HGN-240]: 48.8
CC(C)(C)c1nnc(-c2cc3ccccc3[nH]2)o1 [HGN-239]: 49.5
c1ccc2[nH]c(-c3nnco3)cc2c1 [HGN-207, 2-(1H-indol-2-yl)-1,3,4-oxadiazole]: 49.5
Oc1c(Br)cc(Br)cc1-c1cc2ccccc2[nH]1 [HGN-340, 2,4-dibromo-6-(1H-indol-2-yl)phenol]: 49.3
C(=C\c1nnc(-c2nc3ccccc3s2)o1)/c1ccccc1 [HGN-335]: 48.5
c1ccc(Cc2nnc(-c3cc4ccccc4[nH]3)o2)cc1 [HGN-221]: 48.5
COc1ccc(-c2nnc(-c3nc4ccccc4s3)o2)cc1 [HGN-336]: 49.5
FC(F)(F)c1ccc(-c2nnc(-c3cc4ccccc4[nH]3)o2)cc1 [HGN-214]: 49.8

Field request: MtIspD melting temp | item: c1ccc(-c2cccc(-c3nnc(-c4cc5ccccc5[nH]4)o3)c2)cc1 [HGN-287]
48.5

Field request: MtIspD melting temp | item: FC(F)(F)c1ccc(-c2nnc(-c3nc4ccccc4[nH]3)o2)cc1 [HGN-422]
49.0

Field request: MtIspD melting temp | item: Clc1ccc(OCc2nnc(-c3nc4ccccc4s3)o2)c(Cl)c1 [HGN-333]
49.3

Field request: MtIspD melting temp | item: c1ccc2[nH]c(-c3nnc(C4CCCC4)o3)cc2c1 [HGN-252]
49.5

Field request: MtIspD melting temp | item: CCc1nnc(-c2cc3ccccc3[nH]2)o1 [HGN-250]
48.8

Field request: MtIspD melting temp | item: FC(F)(F)c1nnc(-c2cc3ccccc3[nH]2)o1 [HGN-211]
49.3

Field request: MtIspD melting temp | item: COc1ccc(-c2nnc(-c3cc4ccccc4[nH]3)o2)cc1 [HGN-223]
48.0

Field request: MtIspD melting temp | item: Cc1ccc(-c2nnc(-c3nc4ccccc4s3)o2)cc1 [HGN-338]
48.0

Field request: MtIspD melting temp | item: O=[N+]([O-])c1cc(-c2nnc(-c3nc4ccccc4s3)o2)cc([N+](=O)[O-])c1 [HGN-334]
48.0

Field request: MtIspD melting temp | item: Cc1nnc(-c2cc3ccccc3[nH]2)o1 [HGN-209]
49.5

Field request: MtIspD melting temp | item: FC(F)(F)c1ccc(-c2nnc(-c3nc4ccccc4s3)o2)cc1 [HGN-337]
48.8

Field request: MtIspD melting temp | item: Clc1ccc(-c2nnc(-c3nc4ccccc4s3)o2)cc1 [HGN-339]
49.3

Field request: MtIspD melting temp | item: Clc1ccc(-c2nnc(-c3cc4ccccc4[nH]3)o2)cc1 [HGN-213]
48.8

Field request: MtIspD melting temp | item: c1ccc(-c2ccc(-c3nnc(-c4cc5ccccc5[nH]4)o3)cc2)cc1 [HGN-288]
49.0

Field request: MtIspD melting temp | item: Cc1ccc(-c2nnc(-c3cc4ccccc4[nH]3)o2)cc1 [HGN-242]
48.8

Field request: MtIspD melting temp | item: c1ccc(CCc2nnc(-c3cc4ccccc4[nH]3)o2)cc1 [HGN-215]
48.8

Field request: MtIspD melting temp | item: Clc1cccc(-c2nnc(-c3cc4ccccc4[nH]3)o2)c1 [HGN-241]
48.5
